MEASUREMENT TARGET: Breakpoint cluster region protein (Homo sapiens)
PROCEDURE DETAILS: breakpoint cluster region GTPase-activating protein domain inhibitors, dose-response, specificity counterscreen for MgcRacGAP inhibitor project, cell-free, Rac1 GTPase, Biomol Green phosphate readout (AID 652149)
TEST CONDITIONS: BCR GAP/Rac1 GTPase, Biomol green phosphate absorbance
RESULT TYPE: pIC50
Hey, just a heads up that pIC50 is the negative log base 10 of the concentration in molar.

Item O=c1c2ccccc2sn1-c1cccc(Cl)c1 with Breakpoint cluster region protein (Homo sapiens) - pIC50? 4.42

Item: O=C1C(Cl)=C(NC(=O)c2ccccc2)C(=O)C(Cl)=C1NC(=O)c1ccccc1 4.64

Item: O=C1C(=Cc2ccco2)CCC1=Cc1ccco1 4.89

Item: O=c1c2ccccc2sn1-c1ccccc1F 4.48

Item: Nc1ccc(OCc2ccco2)cc1 4.69

Item: COc1ccc(-n2sc3ccc(F)cc3c2=O)cc1 5.01

Item: CC1OC(CC(=O)O)CC2=C1C(=O)c1c(O)cccc1C2=O (stereo not given) 4.88

Item: COC(=O)c1cccc(-n2sc3ccccc3c2=O)c1 4.83

Item: O=C1C(SCCO)=C(SCCO)C(=O)c2ccccc21 4.60

Item: COc1ccc(Nc2ccc3ccccc3c2)cc1 5.23

Item: CC(=O)Nc1ccc2sn(-c3ccccc3)c(=O)c2c1 4.56

Item: O=C(O)C1CSC(c2ccco2)N1 (stereo not given) 4.97

Item: O=c1c2ccccc2sn1-c1ccc(Cl)cc1 5.35

Item: O=c1c2ccccc2sn1-c1ccc(F)cc1 5.35

Item: O=C1NC(=S)N(c2ccccc2)C(=O)/C1=C/c1ccco1 4.99

Item: Cc1cc(N)c2cc(NC(=O)/C=C/c3ccccc3Cl)ccc2n1 4.54

Item: O=C1C=CC(=O)N1c1ccccc1N1C(=O)C=CC1=O 4.66

Item: O=C(Nc1ccccc1Cl)/C(Cl)=C(\Cl)S(=O)c1ccccc1 (stereo not given) 4.90

Item: Cc1ccc(-n2sc3cc(F)ccc3c2=O)c(C)c1 5.17

Item: Cn1ccc(=Nc2ccc(NC(=O)c3ccc(N=c4ccn(C)c5ccc([N+](=O)[O-])cc45)cc3)cc2)cc1 4.85

Item: Cc1cc(C)c2c(=N)c3ccccc3n(CCCCCCCCn3c4ccccc4c(=N)c4c(C)cc(C)nc43)c2n1 4.75

Item: COc1ccc(-n2sc3ccccc3c2=O)cc1 4.88

Item: Nc1n[nH]c(=S)n1/N=C1/C(=O)Nc2ccccc21 4.84

Item: O=C1C=CC(=O)c2c(O)c(N3CCN(CCOCCO)CC3)c(Br)c(O)c21 4.50

Item: CN(C)c1ccc(/C=C/c2cc[n+](C)c3ccccc23)cc1 4.63

These entries and their values trace back to PubChem BioAssay AID652149.
